# log10 of IC50 annotations
Tested on: cultured human mast cells (CHMC)
ASSAY: CHMC low cell density IgE activation: tryptase assay
Format: cell-based
MEASUREMENT CONTEXT: low cell density; read-out: CHMC anti-IgE Tryptase
READOUT: log10 of IC50 (log10 of the value in nM)

| COMPOUND | log10 of IC50 |
| --- | --- |
| COc1ccc(Nc2nc(Nc3ccc4c(c3)CC(C(=O)N(C)C)O4)ncc2F)cc1Cl (centres unmarked) | 2.83 |
| CNC(=O)COc1cccc(Nc2ncc(F)c(Nc3ccc(OCc4ccccc4)c(Cl)c3)n2)c1 | 2.73 |
| CN1CCN(c2ccc(Nc3ncc(F)c(Nc4ccc5c(n4)NC(=O)C(C)(C)O5)n3)cc2)CC1 | 2.45 |
| CCNC1CCC(Oc2ccc(Nc3nc(Nc4cccc(OCC(=O)NC)c4)ncc3F)cc2Cl)CC1 (mixture of isomers) | 3.46 |
| COc1ccc(Nc2ncc(F)c(Nc3cccc(N)n3)n2)cc1Cl | 2.41 |
| CCN(CC)CCCNc1ncc(F)c(Nc2ccc(Cl)c(Cl)c2)n1 | 4.21 |
| COc1c(C)cc(Nc2ncc(F)c(Nc3ccc4cnn(C)c4c3)n2)cc1Cl | 2.36 |
| CNC(=O)n1ccc2ccc(Nc3nc(Nc4ccc(OC)c(Cl)c4)ncc3F)cc21 | 3.79 |
| COc1c(C)cc(Nc2ncc(F)c(Nc3ccc4c(n3)NC(=O)C(C)(C)O4)n2)cc1Cl | 2.42 |
| CNC(=O)n1ccc2ccc(Nc3nc(Nc4cc(OC)cc(OC)c4)ncc3F)cc21 | 3.98 |
| CC(=O)N(C)c1ccc(Nc2ncc(F)c(NC3CCC3)n2)cc1 | 2.99 |
| CCOC(=O)CCn1cc2cc(Nc3ncc(F)c(Nc4ccc(Cl)c(Cl)c4)n3)ccc2n1 | 2.71 |
| CNC(=O)COc1cccc(Nc2ncc(F)c(Nc3ccc4c(c3)C(NC(=O)CN(C)C)CCO4)n2)c1 (racemic) | 3.36 |
| CCN(CC)CCNC(=O)c1ccc(Nc2ncc(F)c(Nc3ccc(Cl)c(Cl)c3)n2)cc1 | 2.58 |

Each recorded value in this set is attributed to patent US8158621B2.
